- target.system: T1, recombinant human EGFR extracellular domain with 6xHis (human, UniProt P00533 25-645)
- T1 construct: In-house produced; also called 6xHis EGFR ECD; soluble human EGFR ECD; not shown: 6xHis tag
- assay.explanation: SPR competition, competitor 1277
property.measured: % inhibition (%)
Answer format: numeric, % implied, no suffix.

Ask | Can you look up the measured % inhibition of antibody 1208 (antibody, human IgG1, kappa, V domains shown, Chimeric IgG1 kappa; also called clone 1208) VH: EVQLVESGGGLVKPGGSLKLSCAASGFAFSSYDMSWVRQTPEKRLEWVAYIGSGDDNTHYPDSVKGRFTISRHNAKNTLYLQMSSLKSEDTAMYYCARQKYGNYGDTMDYWGQGTSVTVSS VL: DVVMTQTPLSLPVSLGDQASISCRSSQSLVHSNGNTYLHWYLQKPGQSPKLLIYKVSNRFSGVPDRFSGSGSGTDFTLKISRVEAEDLGVYFCSQSTHVPTFGGGTKLEIKR for me?
Reply | 40

Ask | Can you look up the measured % inhibition of antibody 1257 (antibody, human IgG1, kappa, V domains shown, Chimeric IgG1 kappa) VH: EVQLQQSGPELVKPGASVKIPCKTSGYTFTDYNMAWVKQSHGKSLEWIGDIIPNNGGAIYNQKFKGKATLTVDKSSSTASMELRSLTSEDTAVYFCARKNIYYRYDGAGALDYWGQGTSVTVSS VL: QIVLTQSPAIMSASPGEKVTMTCSASSSVSYIYWYQQKPGSSPRLLIYDASNLASGVPVRFSGSGSGTSYSLTISRMEAEDAATYYCQQWSSYPITFGSGTKLEIKR for me?
Reply | 11

Ask | Can you look up the measured % inhibition of antibody 1261 (antibody, human IgG1, kappa, V domains shown, Chimeric IgG1 kappa) VH: EVQLVESGGGLVKPGGSLKLSCAVSGFTFSSYVMSWVRQTPEKRLEWVATITSGGRNIYYLDSVKGRFTISRDNAKNTLYLQMSSLRSEDTAMYYCARHEDYRYDGYYAMDYWGQGTSVTVSS VL: QIVLTQSPAIMSASPGEKVTITCSASSSVSYMHWFQQKPGTSPKLWIYSTSNLASGVPARFSGSGSGTSYSLTISRMEAEDAATYYCQQRSSYPYTFGGGTKLELKR for me?
Reply | -19
